Tested on: RIVA
Assay method text: growth inhibition by drug alone (1 - RLU/untreated control) (fraction); higher = stronger inhibition
Condition details: 100 nM; time (day): 6; 177Lu-lilotomab satetraxetan 0 ug/ml
Structures can show the parent of a compound that is named as a salt.
Measured quantity: growth inhibition by drug alone

>>> measured("Nc1ccccc1NC(=O)c1ccc(CNc2nccc(-c3cccnc3)n2)cc1 [Mocetinostat (MGCD0103)]")
0.152
>>> measured("CC[C@@H]1/C=C(\\C)C[C@H](C)C[C@H](OC)[C@H]2O[C@@](O)(C(=O)C(=O)N3CCCC[C@H]3C(=O)O[C@H](/C(C)=C/[C@@H]3CC[C@H](Cl)[C@H](OC)C3)[C@H](C)[C@@H](O)CC1=O)[C@H](C)C[C@@H]2OC [Pimecrolimus]")
0.477
>>> measured("CC(C)(C)c1cc(NC(=O)Nc2ccc(-c3cn4c(n3)sc3cc(OCCN5CCOCC5)ccc34)cc2)no1 [Quizartinib (AC220)]")
-0.46
>>> measured("O=C(/C=C/c1cccc(S(=O)(=O)Nc2ccccc2)c1)NO [Belinostat (PXD101)]")
0.796
>>> measured("O=C(NOC[C@H](O)CO)c1ccc(F)c(F)c1Nc1ccc(I)cc1F")
-0.189
>>> measured("CCC1=C[C@@H]2CN(C1)Cc1c([nH]c3ccccc13)[C@@](C(=O)OC)(c1cc3c(cc1OC)N(C)[C@H]1[C@@](O)(C(=O)OC)[C@H](OC(C)=O)[C@]4(CC)C=CCN5CC[C@]31[C@@H]54)C2 [Vinorelbine (Navelbine)]")
0.972
>>> measured("Cc1nc(-c2ccc(OCC(C)C)c(C#N)c2)sc1C(=O)O [Febuxostat (Uloric)]")
-0.046
>>> measured("CS(=O)(=O)CCNCc1ccc(-c2ccc3ncnc(Nc4ccc(OCc5cccc(F)c5)c(Cl)c4)c3c2)o1 [Lapatinib Ditosylate (Tykerb)]")
-0.291
>>> measured("CS(=O)(=O)c1cccc(CNc2nc(Nc3ccc4c(c3)CCC(=O)N4)ncc2C(F)(F)F)c1")
-0.218
>>> measured("Oc1ccc(Nc2nc(-c3ccc(Cl)cc3)cs2)cc1")
-0.57
>>> measured("COC1=CC(c2cc3ccccc3[nH]2)=N/C1=C\\c1[nH]c(C)cc1C [Obatoclax mesylate (GX15-070)]")
-0.6
>>> measured("Cc1nc(N)sc1-c1ccnc(Nc2ccc(N3CCOCC3)cc2)n1")
-0.233

====

Test system: U-2932
Assay method text: growth inhibition by drug plus 177Lu-lilotomab satetraxetan (1 - RLU/untreated control) (fraction); higher = stronger inhibition
Condition details: 1000 nM; time (day): 4; 177Lu-lilotomab satetraxetan 1 ug/ml
Counter-ions that a name gives are not always drawn.
The following compounds are shown together with reported growth inhibition by drug plus 177Lu-lilotomab satetraxetan values.
Measured quantity: growth inhibition by drug plus 177Lu-lilotomab satetraxetan

>>> measured("C[C@]12CC[C@H](O)CC1=CC[C@@H]1[C@@H]2CC[C@]2(C)C(c3cccnc3)=CC[C@@H]12")
0.0151
>>> measured("CCN(CC)CCCC(C)Nc1nc(C)cc(Nc2ccc3nc(C)cc(N)c3c2)n1 (stereo not given)")
0.11
>>> measured("CN(C)Cc1c(C(=O)NCCOc2ccc(C(=O)NO)cc2)oc2ccccc12")
0.989
>>> measured("C#CCN(C)CC1=Cc2ccccc2Oc2ccccc21")
0.0839
>>> measured("Nc1ccn([C@@H]2O[C@H](CO)[C@@H](O)[C@@H]2O)c(=O)n1")
0.801
>>> measured("COc1cc2nccc(Oc3ccc(NC(=O)NC4CC4)c(Cl)c3)c2cc1C(N)=O")
0.00296
>>> measured("CN(Cc1cnc2nc(N)nc(N)c2n1)c1ccc(C(=O)N[C@@H](CCC(=O)O)C(=O)O)cc1 [Abitrexate (Methotrexate)]")
0.924
>>> measured("COc1c(C)cnc(Cn2cnc3c(Cl)nc(N)nc32)c1C")
0.985
>>> measured("O=C(O)C(=O)O.[NH-]C1CCCCC1[NH-].[Pt+2] (stereo not given) [Oxaliplatin (Eloxatin)]")
0.638
>>> measured("CCOc1cc2ncc(C#N)c(Nc3ccc(F)c(Cl)c3)c2cc1NC(=O)/C=C/CN(C)C [Pelitinib (EKB-569)]")
0.3
>>> measured("CS(=O)(=O)N1CCN(Cc2cc3nc(-c4cccc5[nH]ncc45)nc(N4CCOCC4)c3s2)CC1")
0.875
>>> measured("CC(C)Oc1cc(Nc2nc(N[C@@H](C)c3ccc(F)cn3)ncc2Cl)n[nH]1")
0.174
>>> measured("CCCC(=O)[O-].[Na+] [Sodium butyrate]")
0.0387
>>> measured("Cc1ccc(F)c(NC(=O)Nc2ccc(-c3cccc4[nH]nc(N)c34)cc2)c1")
0.108
>>> measured("Nc1cccc2c1CN(C1CCC(=O)NC1=O)C2=O (stereo not given) [Lenalidomide]")
0.263
>>> measured("O=C1c2ccccc2C(=O)c2c(NCCc3ccc(O)cc3)ccc(NCCc3ccc(O)cc3)c21")
-0.0952
>>> measured("CN1CCN(c2cccc(Nc3nc4c(-c5ccc(S(C)(=O)=O)cc5)cccn4n3)c2)CC1")
0.0604
>>> measured("COc1ccc(C2CC(c3ccccc3)=NN2c2ccc(S(N)(=O)=O)cc2)cc1 (stereo not given)")
0.0449
>>> measured("O=C(O[C@@H]1Cc2c(O)cc(O)cc2O[C@@H]1c1cc(O)c(O)c(O)c1)c1cc(O)c(O)c(O)c1 [(-)-Epigallocatechin gallate]")
0.036
>>> measured("CNC(=O)c1cc(COc2nnc(Nc3ccc(Cl)cc3)c3ccoc23)ccn1")
-0.0474
>>> measured("Nc1[nH]nc2nnc(-c3c(-c4ccccc4)nn4ccccc34)cc12")
0.143
>>> measured("COc1ccc2c3n(c(=NC(=O)c4cccnc4)nc2c1OC)CCN3")
0.175
>>> measured("C=CC(=O)N1CCC[C@@H](n2nc(-c3ccc(Oc4ccccc4)cc3)c3c(N)ncnc32)C1")
0.723
>>> measured("COc1cc(Nc2c(C#N)cnc3cc(OCCCN4CCN(C)CC4)c(OC)cc23)c(Cl)cc1Cl [Bosutinib (SKI-606)]")
0.281
>>> measured("NC(=O)c1ccc2nc(-c3ccc(Oc4ccc(Cl)cc4)cc3)[nH]c2c1")
-0.107
>>> measured("COc1ccccc1OCC(O)CN1CCN(CC(=O)Nc2c(C)cccc2C)CC1 (stereo not given) [Ranolazine (Ranexa)]")
"8.82e-05"
>>> measured("CC[C@@]1(O)C(=O)OCc2c1cc1n(c2=O)Cc2cc3c(CN(C)C)c(O)ccc3nc2-1 [Topotecan HCl]")
0.978
>>> measured("CNC(=O)c1ccc(N2C(=S)N(c3ccc(C#N)c(C(F)(F)F)c3)C(=O)C2(C)C)cc1F [MDV3100 (Enzalutamide)]")
0.0892
>>> measured("O=C(Nc1cccnc1)N1CCC(Cc2cccc(Oc3ccc(C(F)(F)F)cn3)c2)CC1")
0.291
>>> measured("CN1CCN(c2ccc3nc(-c4c(N)c5c(F)cccc5[nH]c4=O)[nH]c3c2)CC1")
0.031
>>> measured("C[C@]12CCC(=O)C=C1CC[C@@H]1[C@@H]2[C@@H](O)C[C@@]2(C)[C@H]1CC[C@]2(O)C(=O)CO [Hydrocortisone (Cortisol)]")
0.288
>>> measured("O=C1CN2Cc3c(ccc(Cl)c3Cl)N=C2N1 [Anagrelide hydrochloride]")
0.088
>>> measured("CCN[C@H]1C[C@H](C)S(=O)(=O)c2sc(S(N)(=O)=O)cc21 [Dorzolamide HCL]")
0.164
>>> measured("COc1cc2nc(N3CCCN(C)CC3)nc(NC3CCN(Cc4ccccc4)CC3)c2cc1OC")
0.247
>>> measured("Nc1nccc(Oc2ccc(NC(=O)c3c[nH]cc(-c4ccc(F)cc4)c3=O)cc2F)c1Cl")
0.0171
